- Tested on: MDA-MB-435
- PROTOCOL SUMMARY: NCI tumour cell line growth inhibition, 48 h
Active and inactive are the calls of the source. No stated cut-off is given here; in the data, active = GI50 up to about 1.1 µM and inactive = higher.
VALUE KIND: GI50

> print(dat)
                                    molecule              reading
 1  COc1ccc(CCNC(=O)c2ccccc2C2c3ccc(OCc4ccccc4)cc3Oc3cc(OCc4ccccc4)ccc32)cc1OC  > 100 µM (inactive)
 2  CCOc1ccc(-n2c(=O)n3c(Nc4ccc(Cl)cc4)nc4c(c(=O)n(C)c(=O)n4C)n3c2=O)cc1   20.3 µM (inactive)
 3         [O-][N+]1=NC(c2ccccc2)=C1c1ccccc1   > 50 µM (inactive)
 4                                NCCCNOCCCN  > 100 µM (inactive)
 5    COC(=O)Nc1nc2cc(C(=O)c3cccs3)ccc2[nH]1   0.0111 µM (active)
 6           O=C1C=C/C(=N/c2ccccc2)c2ccccc21   1.84 µM (inactive)
 7          CCOC(=O)/C(C(N)=O)=C(/O)c1cnccn1  > 100 µM (inactive)
 8  O=C(Oc1cccc2cccnc12)c1cc2cc(CCl)ccc2oc1=O   10.8 µM (inactive)
 9  CC(=O)N1C(=O)CC2(N=C(C)CC2=O)c2ccccc21 (stereo unspecified)   > 10 µM (inactive)
10  CCN(CC)c1c(-c2c(OC(C)C)c(=O)c2=O)c(=O)n2ccsc2c1OC(C)=O  > 100 µM (inactive)
11  Cc1ccc(CC2(OCCN(C)C)CCC(C(C)(C)C)CC2)cc1 (stereo unspecified)    2.4 µM (inactive)

----------
- Tested on: U-251
- PROTOCOL SUMMARY: NCI tumour cell line growth inhibition, 48 h
Activity calls are given as the source filed them. Cut-off read from the data, not from the text of the source: active = GI50 up to about 1.1 µM and inactive = higher.
Outcome codes: active, inactive

> print(dat)
                                    compound  category.label
 1  CN/C(=N\CCSCc1nc[nH]c1C)NC#N [CIMETIDINE]        inactive
 2  COC1[C@@H](OC(C)=O)[C@@H](NC(=O)C(Cl)(Cl)Cl)C(I)[C@@H](N2C(=O)c3ccccc3C2=O)[C@H]1OC (stereo partly drawn)        inactive
 3  O=C(CC(=O)N(C(=O)c1ccccc1)c1ccc(Cl)cc1)N/N=C\c1ccccc1O        inactive
 4  CCOc1ccccc1/N=N/C1C(=O)N(C(=O)CC(=O)Nc2ccccc2OC)N=C1C (stereo not drawn)        inactive
 5  NC(CCOCCP(=O)(O)O)C(=O)O (stereo not drawn)        inactive
 6  Cc1ccc(N(C(=O)CC(=O)NN)C(=O)c2ccccc2Cl)cc1        inactive
 7     CC(C)(C)C(=O)/C=C/c1cccc(Oc2ccccc2)c1        inactive
 8                        Nc1nc(=O)[nH][nH]1        inactive
 9  COC(=O)Nc1nc2cc(C(=O)c3cccs3)ccc2[nH]1 [NOCODAZOLE]          active
10     CN(CCCN(C)Cc1ccc(Cl)c(Cl)c1)CCN1CCCC1        inactive
11  O=[N+]([O-])/C(C(Cl)=C(Cl)Cl)=C(\SCc1ccccc1)N1CCCCC1        inactive
12        c1ccc(CNCCCNCCCCNCCCNCc2ccccc2)cc1        inactive
13  COc1ncn(C2C=C(CO)C(O)C2O)c(=O)n1 (stereo not drawn)        inactive
14  COC(=O)/C=C\C(C#N)(C#N)/N=C/c1ccc(OC)cc1        inactive
15    O=C1C(=Cc2c(O)cc(O)cc2O)C(=O)c2ccccc21        inactive
16  O=C1CCCCCCCCCCC(=O)C2CCOCCOCCOCCC1Cc1cccc(n1)C2        inactive
17              C/C(=N\c1ccc(Cl)cc1)c1ccncc1        inactive
18    COc1ccc2nccc(/C=C/c3ccc(N(C)C)cc3)c2c1        inactive
19  O=C(O)c1ccccc1C(=O)c1ccc2c(c1)Cc1ccccc1-2        inactive
20  C=CC(c1ccccc1)C1(O)c2cccc(O)c2C(=O)c2c(O)cccc21 (stereo not drawn)        inactive
21  COc1cc2c[n+](C)c3c4cc(OC)c(OC(C)C)cc4ccc3c2cc1OC        inactive
22  CC1(C)CO[P@@](=S)(c2ccccn2)O[C@@H]1c1ccccc1        inactive
23  NCCCCC(N)C(=O)NCCNc1ccc(NCCNC(=O)C(N)CCCCN)c2c1C(=O)c1ccccc1C2=O (stereo not drawn)        inactive

----------
Recorded GI50 values for a group of molecules are listed next.
- System: SF-268
- PROTOCOL SUMMARY: NCI tumour cell line growth inhibition, 48 h
Calls of active or inactive are those of the source. Rule as the data show it: active = GI50 up to about 1.1 µM and inactive = higher.
VALUE KIND: GI50

> print(dat)
                                    molecule  value.kind              reading
 1             CC1(C)OC(=O)C(c2cccs2)C(=O)O1        GI50  > 100 µM (inactive)
 2  N=C(N)C(/N=N\c1ccccc1)C(N)=O (configuration not stated)        GI50  > 100 µM (inactive)
 3          Cn1cc(C(=O)c2ccccc2)c2ccccc2c1=O        GI50  > 100 µM (inactive)
 4  Cn1ccnc1CC(C)(O)c1ccccc1 (configuration not stated)        GI50  > 100 µM (inactive)
 5  S=C(S)NCC1CCC(CNC(=S)S)CC1 (configuration not stated)        GI50   39.2 µM (inactive)
 6         N#C/C(=C\c1cc(O)c(O)c(O)c1)C(N)=O        GI50   67.3 µM (inactive)
 7  O=C(CN1CCN(c2ccccn2)CC1)N1CCCn2c1nc1ccccc1c2=O        GI50  > 100 µM (inactive)
 8       Cc1ccc(Nc2nc3[nH]ccc3c(=O)[nH]2)cc1        GI50   65.3 µM (inactive)
 9                                NCCCNOCCCN        GI50  > 100 µM (inactive)
10  CC1(C)CO[P@@](=S)(c2ccccn2)O[C@@H]1c1ccccc1        GI50  > 100 µM (inactive)
11            CN/C(N)=N/N=C1/C(=O)Nc2ccccc21        GI50  > 100 µM (inactive)
12  COc1cc2c[n+](C)c3c4cc(OC)c(OC(C)C)cc4ccc3c2cc1OC        GI50     47 µM (inactive)
13  CN(CCCCCl)P(=O)(OCc1ccc([N+](=O)[O-])o1)OCC1OC(n2ccc(N)nc2=O)C(O)C1O (configuration not stated)        GI50    7.6 µM (inactive)
14         O=C(O)C1(C(=O)O)CC1(C(=O)O)C(=O)O        GI50  > 100 µM (inactive)
15               CCOC(=O)Nc1sc2c(c1C#N)CCCC2        GI50  > 100 µM (inactive)
16  Cc1ccc(S(=O)(=O)OCC/C(=C\[Si](C)(C)C)c2ccccc2)cc1        GI50  > 100 µM (inactive)
17                OCCCCCNc1nc(O)c2[nH]cnc2n1        GI50  > 100 µM (inactive)
18  O=C(O)CC12C3C4C5C3C1C5C42 (configuration not stated)        GI50  > 100 µM (inactive)
19     Cc1ccc2c(c1)S(=O)(=O)c1ccc3ccccc3c1N2        GI50  > 100 µM (inactive)
20  Cc1c(NC(=O)CCCl)c(=O)oc2c(C)c3occc(=O)c3cc12        GI50  > 100 µM (inactive)
21  NCC1(N2CCOCC2)C2CCCC21CNc1ccccc1 (configuration not stated)        GI50  > 100 µM (inactive)
22      Cc1ccc(/C=N/Nc2cc(C)c3cccc(C)c3n2)s1        GI50   6.73 µM (inactive)

----------
- System: OVCAR-4
- PROTOCOL SUMMARY: NCI tumour cell line growth inhibition, 48 h
Calls of active or inactive are those of the source. Cut-off read from the data, not from the text of the source: active = GI50 up to about 1.1 µM and inactive = higher.
Outcome codes: T for active, F for inactive

> print(dat)
                                    compound  subject.of.test  category.label
 1  COc1cc2c[n+](C)c3c4cc(OC)c(OC(C)C)cc4ccc3c2cc1OC          OVCAR-4               F
 2  O=c1oc2c3ccc4ccccc4c3n(CCCN3CCCCC3)c2c2ccccc12          OVCAR-4               F
 3  CC(C)(C)[Si](C)(C)O/N=C\c1cccc(O[Si](C)(C)C(C)(C)C)c1          OVCAR-4               F
 4  Nc1nc2c(c(=O)[nH]1)C(c1ccccc1)CC(=O)N2 (stereo unspecified)          OVCAR-4               F
 5      Brc1ccc(C2=NCSC(c3ccc(Br)cc3)=N2)cc1          OVCAR-4               F
 6  Cc1ccc(S(=O)(=O)N/N=C(/CC(=O)c2c(C)[n+]([O-])c3ccccc3[n+]2[O-])C(=O)Nc2ccc(C)c(C)c2)cc1          OVCAR-4               F
 7  CC1=CC2C3(C)C(C)(C(C)=CP3(=O)c3c(C(C)C)cc(C(C)C)cc3C(C)C)C1P2(=O)c1c(C(C)C)cc(C(C)C)cc1C(C)C (stereo unspecified)          OVCAR-4               F
 8  Cc1ccc(S(=O)(=O)NC(=O)NC(Cc2ccc(O)cc2)C(=O)O)cc1 (stereo unspecified)          OVCAR-4               F
 9              COc1cccc2cc(C(=O)O)c(=O)oc12          OVCAR-4               F
10  O=C1C=C2S[C@H]3C[C@]2(C=C1Br)C1=C(N3)C(=O)c2[nH]cc3c2C1=NCC3 [(+)-DISCORHABDIN B]          OVCAR-4               T
11   COC(NC(N)=O)C(=O)O (stereo unspecified)          OVCAR-4               F
12    OC(c1ccc(Cl)cc1)(c1ccc(Cl)cc1)c1cncnc1          OVCAR-4               F
13  Cc1cc2c(cc1Cl)SC(NNc1ccc([N+](=O)[O-])cc1)=NS2(=O)=O          OVCAR-4               F
14    O=C1C(=Cc2c(O)cc(O)cc2O)C(=O)c2ccccc21          OVCAR-4               F
15  COc1ccc(/C=C2\CCC(CCN(C)C)(C3=CCCC3)C2=O)cc1 (stereo unspecified)          OVCAR-4               F
16  OCCN1CN(c2nc(N3CN(CCO)C3)nc(N3CN(CCO)C3)n2)C1          OVCAR-4               F
17                                NCCCNOCCCN          OVCAR-4               F
18       Cc1ccc(Nc2nc3[nH]ccc3c(=O)[nH]2)cc1          OVCAR-4               F
19  COc1ccc(NC(=O)CC/C(CC(=O)C(C)(C)C)=N\NC(=O)C(N)=O)cc1          OVCAR-4               F
20  CCN(CC)c1c(-c2c(OC(C)C)c(=O)c2=O)c(=O)n2ccsc2c1OC(C)=O          OVCAR-4               F
21  O=[N+]([O-])/C(C(Cl)=C(Cl)Cl)=C(\SCc1ccccc1)N1CCCCC1          OVCAR-4               F
